Reference source for all entries: paper PMC8587714

# Assay: logD7.4 determination, shake-flask method
# Format: physicochemical
# Test conditions: 1-octanol/phosphate buffer pH 7.4, n = 6; read-out: lipophilicity (logD7.4)
Assay readout: logD
Please reply with the number alone, leaving off any unit.

# input Query logD for CCCc1ccc(O)c(-c2ccc(OCC[18F])cc2)c1 [[^18F]F-IV]
# output 3.3

---

# Assay: Plasma protein binding by ultrafiltration, rat plasma
# Assay type: in vitro ADME
# Test conditions: rat plasma, read-out: PPB level, rats (converted)
Assay readout: fraction unbound at 15 min, 9.1 MBq/mL
Answer with a bare number; do not write a unit.

# input Report fraction unbound at 15 min, 9.1 MBq/mL for CCCc1ccc(O)c(-c2ccc(O[11CH3])cc2)c1 [[^11C]MPbP, reference compound]
# output 0.08
